measurement_target: CDK2/CycE (Homo sapiens, UniProt P24941)
Construct: GST; purchased ProQinase GmbH (Freiburg, Germany); host or cells: insect cells (Sf9)
measurement_protocol: CDK2/CycE kinase assay (Method 2a, TR-FRET)
Assay type: biochemical
measurement_conditions: 10 μM ATP
value_type: IC50 (nM)

Guide cases for IC50, answers given:
CS(=O)(Cc1cc(F)cc(Nc2ncc(F)c(-c3ccc(F)c4ccoc34)n2)c1)=NC#N (racemic) [Example 7]: 56
Cc1cc(CS(C)(=O)=NC#N)cc(Nc2ncc(F)c(-c3ccc(F)c4ccoc34)n2)c1 (single isomer, unassigned) [Example 15]: 95
CS(=O)(Cc1cc(F)cc(Nc2ncc(F)c(-c3ccc(F)c4ccoc34)n2)c1)=NC#N (single isomer, unassigned) [Example 9]: 88
Cc1cc(CS(C)(=O)=NC#N)cc(Nc2ncc(F)c(-c3ccc(F)c4ccoc34)n2)c1 (single isomer, unassigned) [Example 14]: 65
CS(=O)(Cc1cc(F)cc(Nc2ncc(F)c(-c3ccc(F)c4ccoc34)n2)c1)=NC#N (single isomer, unassigned) [Example 8]: 62

(P) CS(=N)(=O)Cc1cccc(Nc2ncc(F)c(-c3ccc(F)c4ccoc34)n2)c1 (single isomer, unassigned) [Example 5]
(Q) CS(=O)(Cc1cccc(Nc2ncc(F)c(-c3ccc(F)c4ccoc34)n2)c1)=NC#N (single isomer, unassigned) [Example 2]
(R) CS(=O)(Cc1cc(Nc2ncc(F)c(-c3ccc(F)c4ccoc34)n2)cc(S(F)(F)(F)(F)F)c1)=NC#N (racemic)
(S) Cc1cc(CS(C)(=O)=NC#N)cc(Nc2ncc(F)c(-c3ccc(F)c4ccoc34)n2)c1 (racemic) [Example 13]
Q: Give the ascending ranking of the items by reported IC50. # list labels per requested ordering
Ans: Q, S, P, R

(A) CS(=N)(=O)Cc1cccc(Nc2ncc(F)c(-c3ccc(F)c4ccoc34)n2)c1 (racemic) [Example 4]
(B) CS(=N)(=O)Cc1cc(F)cc(Nc2ncc(F)c(-c3ccc(F)c4ccoc34)n2)c1 (single isomer, unassigned) [Example 12]
(C) CS(=N)(=O)Cc1cc(Nc2ncc(F)c(-c3ccc(F)c4ccoc34)n2)cc(S(F)(F)(F)(F)F)c1 (racemic)
Q: Order field: IC50 | Direction: descending (largest first) Put the labels in the requested order and write them down.
Ans: A, C, B

====

Test system: Caco-2 cells
measurement_protocol: Proliferation assay Caco-2 (Method 3)
Format: cell-based, human
measurement_conditions: Homo sapiens, Caco-2, 96 h, Caco-2, 4 days, crystal violet; read-out: Inhibition of Caco-2 cell proliferation IC50
value_type: IC50 (nM)

(A) CS(=O)(Cc1cccc(Nc2ncc(F)c(-c3ccc(F)c4ccoc34)n2)c1)=NC#N (single isomer, unassigned) [Example 3]
(B) Cc1cc(CS(C)(=O)=NC#N)cc(Nc2ncc(F)c(-c3ccc(F)c4ccoc34)n2)c1 (racemic) [Example 13]
Q: Task for the reader: decide whether A or B has the larger IC50. Give the label under which the chosen entry appears.
Ans: A

(P) CS(=O)(Cc1cccc(Nc2ncc(F)c(-c3ccc(F)c4ccoc34)n2)c1)=NC#N (racemic) [Example 1]
(Q) Cc1cc(CS(C)(=N)=O)cc(Nc2ncc(F)c(-c3ccc(F)c4ccoc34)n2)c1 (racemic)
Q: Pick one: P or Q . Which one has the lower reported IC50? // output: label of the selected item
Ans: Q

(1) CS(=N)(=O)Cc1cc(Nc2ncc(F)c(-c3ccc(F)c4ccoc34)n2)cc(S(F)(F)(F)(F)F)c1 (racemic)
(2) CS(=O)(Cc1cc(F)cc(Nc2ncc(F)c(-c3ccc(F)c4ccoc34)n2)c1)=NC#N (single isomer, unassigned) [Example 8]
Q: Endpoint returns whichever of 1 and 2 has the numerically higher IC50. Identify your selection by its label.
Ans: 1
(1: 152 nM, 2: 43 nM)

(P) CS(=N)(=O)Cc1cccc(Nc2ncc(F)c(-c3ccc(F)c4ccoc34)n2)c1 (racemic)
(Q) CS(=N)(=O)Cc1cc(F)cc(Nc2ncc(F)c(-c3ccc(F)c4ccoc34)n2)c1 (single isomer, unassigned) [Example 11]
Q: Between these two entries, P and Q , state which has the higher IC50. Mark your selection by writing its label.
Ans: P

====

measurement_target: CDK9/CycT1 (Homo sapiens, UniProt P50750)
Construct: Recombinant full-length His-tagged human CDK9 and CycT1; His; purchased Invitrogen PV4131; host or cells: insect cells
Sequence (P50750 whole entry): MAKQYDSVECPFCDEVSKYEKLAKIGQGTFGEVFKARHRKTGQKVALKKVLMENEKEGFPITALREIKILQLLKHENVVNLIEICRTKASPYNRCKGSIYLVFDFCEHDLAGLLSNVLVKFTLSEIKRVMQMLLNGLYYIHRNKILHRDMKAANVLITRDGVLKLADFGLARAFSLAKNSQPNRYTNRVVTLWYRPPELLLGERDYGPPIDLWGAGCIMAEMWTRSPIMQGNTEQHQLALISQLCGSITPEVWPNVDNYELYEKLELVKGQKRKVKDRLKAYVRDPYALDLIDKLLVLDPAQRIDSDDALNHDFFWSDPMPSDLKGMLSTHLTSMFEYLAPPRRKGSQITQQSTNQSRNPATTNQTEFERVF
Sequence (O60563 whole entry partner): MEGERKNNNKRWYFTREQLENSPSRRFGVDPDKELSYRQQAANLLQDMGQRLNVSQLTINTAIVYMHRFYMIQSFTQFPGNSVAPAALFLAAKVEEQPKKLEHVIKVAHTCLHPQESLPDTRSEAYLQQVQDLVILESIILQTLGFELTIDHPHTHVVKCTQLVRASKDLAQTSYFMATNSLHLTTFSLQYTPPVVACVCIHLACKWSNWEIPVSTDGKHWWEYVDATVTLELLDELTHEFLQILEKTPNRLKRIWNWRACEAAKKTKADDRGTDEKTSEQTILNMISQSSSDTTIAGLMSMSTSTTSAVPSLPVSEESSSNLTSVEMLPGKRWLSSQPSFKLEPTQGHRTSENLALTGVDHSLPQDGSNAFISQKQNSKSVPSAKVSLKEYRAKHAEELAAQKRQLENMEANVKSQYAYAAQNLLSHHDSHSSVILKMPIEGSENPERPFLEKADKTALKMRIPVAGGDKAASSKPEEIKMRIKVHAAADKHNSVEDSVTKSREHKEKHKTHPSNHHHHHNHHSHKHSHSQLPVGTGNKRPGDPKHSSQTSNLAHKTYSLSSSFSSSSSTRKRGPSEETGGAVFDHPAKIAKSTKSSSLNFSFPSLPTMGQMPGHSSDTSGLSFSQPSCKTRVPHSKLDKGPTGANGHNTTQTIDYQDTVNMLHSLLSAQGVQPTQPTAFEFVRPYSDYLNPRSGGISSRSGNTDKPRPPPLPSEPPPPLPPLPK
measurement_protocol: CDK9/CycT1 high ATP kinase assay (Method 1b, TR-FRET)
Format: biochemical
measurement_conditions: 2 mM ATP
value_type: IC50 (nM)

Cc1cc(CS(C)(=O)=NC#N)cc(Nc2ncc(F)c(-c3ccc(F)c4ccoc34)n2)c1 (single isomer, unassigned) [Example 15]: 1.6

(A) CS(=O)(Cc1cccc(Nc2ncc(F)c(-c3ccc(F)c4ccoc34)n2)c1)=NC#N (single isomer, unassigned) [Example 2]
(B) CS(=O)(Cc1cc(F)cc(Nc2ncc(F)c(-c3ccc(F)c4ccoc34)n2)c1)=NC#N (racemic) [Example 7]
(C) Cc1cc(CS(C)(=N)=O)cc(Nc2ncc(F)c(-c3ccc(F)c4ccoc34)n2)c1 (racemic) [Example 16]
Q: Provide the items ranked by increasing IC50. Put the labels in the requested order and list them out.
Ans: A, B, C
(A: 1.1 nM, B: 1.9 nM, C: 6.4 nM)

====

measurement_target: CDK9/CycT1 (Homo sapiens)
Construct: Recombinant full-length His-tagged human CDK9 and CycT1; His; purchased Invitrogen PV4131; host or cells: insect cells
measurement_protocol: CDK9/CycT1 kinase assay (Method 1a, TR-FRET)
Format: biochemical
measurement_conditions: 10 μM ATP
value_type: IC50 (nM)

CS(=N)(=O)Cc1cccc(Nc2ncc(F)c(-c3ccc(F)c4ccoc34)n2)c1 (single isomer, unassigned) [Example 6]: 2.6
CS(=O)(Cc1cccc(Nc2ncc(F)c(-c3ccc(F)c4ccoc34)n2)c1)=NC#N (single isomer, unassigned) [Example 3]: 3.3

(P) CS(=O)(Cc1cc(F)cc(Nc2ncc(F)c(-c3ccc(F)c4ccoc34)n2)c1)=NC#N (single isomer, unassigned) [Example 9]
(Q) CS(=N)(=O)Cc1cc(F)cc(Nc2ncc(F)c(-c3ccc(F)c4ccoc34)n2)c1 (racemic) [Example 10]
Q: Which shows the larger IC50 value: P or Q ? Please indicate the selected item by its label.
Ans: Q
(Q: 3.1 nM, P: 2.1 nM)

====

measurement_target: CDK9/CycT1 (Homo sapiens)
Construct: Recombinant full-length His-tagged human CDK9 and CycT1; His; purchased Invitrogen PV4131; host or cells: insect cells
measurement_protocol: CDK9/CycT1 kinase assay (Method 1a, TR-FRET)
Format: biochemical
measurement_conditions: 10 μM ATP
pIC50: −log10 of the molar value.
value_type: pIC50

Here is how some compounds turned out for pIC50.
CS(=N)(=O)Cc1cccc(Nc2ncc(F)c(-c3ccc(F)c4ccoc34)n2)c1 (single isomer, unassigned) [Example 5]: 8.43
CS(=N)(=O)Cc1cc(Nc2ncc(F)c(-c3ccc(F)c4ccoc34)n2)cc(S(F)(F)(F)(F)F)c1 (racemic): 8.54
Cc1cc(CS(C)(=O)=NC#N)cc(Nc2ncc(F)c(-c3ccc(F)c4ccoc34)n2)c1 (single isomer, unassigned) [Example 14]: 8.36

(P) CS(=N)(=O)Cc1cccc(Nc2ncc(F)c(-c3ccc(F)c4ccoc34)n2)c1 (racemic) [Example 4]
(Q) CS(=O)(Cc1cc(Nc2ncc(F)c(-c3ccc(F)c4ccoc34)n2)cc(S(F)(F)(F)(F)F)c1)=NC#N (racemic)
Q: Of the pair P and Q , name the member with the lesser recorded pIC50. Your choice should be expressed through its label.
Ans: Q
(Q: 8.10, P: 8.34)

====

measurement_target: CDK2/CycE (Homo sapiens)
Construct: GST; purchased ProQinase GmbH (Freiburg, Germany); host or cells: insect cells (Sf9)
measurement_protocol: CDK2/CycE high ATP kinase assay (Method 2b, TR-FRET)
Type: biochemical
measurement_conditions: 2 mM ATP
value_type: IC50 (nM)

Some compounds with known IC50 results, for comparison:
CS(=N)(=O)Cc1cccc(Nc2ncc(F)c(-c3ccc(F)c4ccoc34)n2)c1 (single isomer, unassigned) [Example 5]: 802
Cc1cc(CS(C)(=O)=NC#N)cc(Nc2ncc(F)c(-c3ccc(F)c4ccoc34)n2)c1 (single isomer, unassigned) [Example 14]: 846

(a) CS(=N)(=O)Cc1cc(F)cc(Nc2ncc(F)c(-c3ccc(F)c4ccoc34)n2)c1 (single isomer, unassigned) [Example 12]
(b) Cc1cc(CS(C)(=N)=O)cc(Nc2ncc(F)c(-c3ccc(F)c4ccoc34)n2)c1 (racemic)
Q: # min-compare on IC50 between a and b Answer by quoting the chosen item's label.
Ans: b

====

System: Caco-2 cells
measurement_protocol: Proliferation assay Caco-2 (Method 3)
Assay type: cell-based, human
measurement_conditions: Homo sapiens, Caco-2, 96 h, Caco-2, 4 days, crystal violet; read-out: Inhibition of Caco-2 cell proliferation IC50
value_type: IC50 (nM)

CS(=O)(Cc1cc(Nc2ncc(F)c(-c3ccc(F)c4ccoc34)n2)cc(S(F)(F)(F)(F)F)c1)=NC#N (racemic): 111
CS(=O)(Cc1cc(F)cc(Nc2ncc(F)c(-c3ccc(F)c4ccoc34)n2)c1)=NC#N (racemic) [Example 7]: 75

(I) Cc1cc(CS(C)(=O)=NC#N)cc(Nc2ncc(F)c(-c3ccc(F)c4ccoc34)n2)c1 (single isomer, unassigned) [Example 14]
(II) CS(=N)(=O)Cc1cc(F)cc(Nc2ncc(F)c(-c3ccc(F)c4ccoc34)n2)c1 (racemic) [Example 10]
Q: # min-compare on IC50 between I and II Identify your pick by its label.
Ans: I
(I: 61 nM, II: 104 nM)
